test system: human C3A liver cell cultures; test: Microarray differential expression of cDNAs in treated human C3A liver cell cultures; type: cell-based; settings: change vs untreated C3A cells
Record form. Attribute: expression level of cDNA clone 2055867. Fill in for each entry.

Enquiry: Entry CC(C)OC(=O)C(C)(C)Oc1ccc(C(=O)c2ccc(Cl)cc2)cc1 [Fenofibrate, fenofibrate] has what expression level of cDNA clone 2055867?
Return: −3.4

Enquiry: Follow-up entry: Cc1ccc2cc3c(ccc4ccccc43)c3c2c1CC3 [MCA, 3-methylcholanthrene]
Return: −2.67

Enquiry: Please answer likewise for C[C@H](CS)C(=O)N1CCC[C@H]1C(=O)O [Captopril]
Return: −2.61

Enquiry: Next record, please: CC/C(=C(/CC)c1ccc(O)cc1)c1ccc(O)cc1 [DES, Diethylstilbestrol]
Return: 2.97

###

tested on: human C3A liver cell cultures; experiment: Microarray differential expression of cDNAs in treated human C3A liver cell cultures; type: cell-based; conditions: change vs untreated C3A cells
observationType: expression level of cDNA clone 2513883

Enquiry: Could you tell me which expression level of cDNA clone 2513883 is on file for CCOC(=O)[C@H](CCc1ccccc1)N[C@@H](C)C(=O)N1CCC[C@H]1C(=O)O ?
Return: 3.82

Enquiry: And for C[C@@H]1C[C@H]2[C@@H]3CCC4=CC(=O)C=C[C@]4(C)[C@@]3(F)[C@@H](O)C[C@]2(C)[C@@]1(O)C(=O)CO ?
Return: 3.93

Enquiry: What about Cc1ccc2cc3c(ccc4ccccc43)c3c2c1CC3 ?
Return: 3.67

Enquiry: What would you report for CC(C)OC(=O)C(C)(C)Oc1ccc(C(=O)c2ccc(Cl)cc2)cc1 [Fenofibrate, fenofibrate] ?
Return: 4.47

###

Provide the recorded expression level of cDNA clone 2884613 for the entries that follow.
test system: human C3A liver cell cultures; test: Microarray differential expression of cDNAs in treated human C3A liver cell cultures; type: cell-based; conditions: change vs untreated C3A cells
Output: the number by itself.

Enquiry: What value of expression level of cDNA clone 2884613 has been recorded for this entry: CCOC(=O)C(C)(C)Oc1ccc(Cl)cc1 [Clofibrate]
Return: 2.54

Enquiry: Try this molecule next: CCOC(=O)[C@H](CCc1ccccc1)N[C@@H](C)C(=O)N1CCC[C@H]1C(=O)O
Return: 2.51

Enquiry: Same for C[C@H](CS)C(=O)N1CCC[C@H]1C(=O)O
Return: 2.46

Enquiry: And then Cc1ccc2cc3c(ccc4ccccc43)c3c2c1CC3 , what is it?
Return: 2.2

###

test system: human C3A liver cell cultures; assay: Microarray differential expression of cDNAs in treated human C3A liver cell cultures; format: cell-based; settings: change vs untreated C3A cells
observationType: expression level of cDNA clone 1930235

Enquiry: I am curious: what expression level of cDNA clone 1930235 value has been reported for CCOC(=O)[C@H](CCc1ccccc1)N[C@@H](C)C(=O)N1CCC[C@H]1C(=O)O ?
Return: 3

Enquiry: Next up: C[C@H](CS)C(=O)N1CCC[C@H]1C(=O)O
Return: 3.25

Enquiry: Now the molecule Cc1ccc2cc3c(ccc4ccccc43)c3c2c1CC3
Return: 2.93

Enquiry: What about this molecule? CCOC(=O)C(C)(C)Oc1ccc(Cl)cc1 [Clofibrate]
Return: 2.73

###

tested on: human C3A liver cell cultures; assay: Microarray differential expression of cDNAs in treated human C3A liver cell cultures; format: cell-based; conditions: change vs untreated C3A cells
observationType: expression level of cDNA clone 63038

Enquiry: What measured expression level of cDNA clone 63038 goes with CCOC(=O)C(C)(C)Oc1ccc(Cl)cc1 [Clofibrate] ?
Return: −3.95

Enquiry: Same question for CC(C)OC(=O)C(C)(C)Oc1ccc(C(=O)c2ccc(Cl)cc2)cc1 [Fenofibrate, fenofibrate] please.
Return: −2.9

Enquiry: Repeat for the following compound: C[C@@H]1C[C@H]2[C@@H]3CCC4=CC(=O)C=C[C@]4(C)[C@@]3(F)[C@@H](O)C[C@]2(C)[C@@]1(O)C(=O)CO
Return: −2.36

Enquiry: Next: C[C@H](CS)C(=O)N1CCC[C@H]1C(=O)O
Return: −3.16

Enquiry: Same lookup for CCOC(=O)[C@H](CCc1ccccc1)N[C@@H](C)C(=O)N1CCC[C@H]1C(=O)O , please.
Return: −2.97

###

Consider the following molecules; for each one, report its expression level of cDNA clone 118501.
tested on: human C3A liver cell cultures; test: Microarray differential expression of cDNAs in treated human C3A liver cell cultures; assay type: cell-based; conditions: change vs untreated C3A cells
No unit in the answer, please; the number alone is enough.

Enquiry: What expression level of cDNA clone 118501 value was documented for this molecule, CCOC(=O)C(C)(C)Oc1ccc(Cl)cc1 [Clofibrate] ?
Return: 4.87

Enquiry: Request: Cc1ccc2cc3c(ccc4ccccc43)c3c2c1CC3
Return: 4.54

Enquiry: Param item: C[C@H](CS)C(=O)N1CCC[C@H]1C(=O)O
Return: 4.36

Enquiry: Now this one: C[C@@H]1C[C@H]2[C@@H]3CCC4=CC(=O)C=C[C@]4(C)[C@@]3(F)[C@@H](O)C[C@]2(C)[C@@]1(O)C(=O)CO
Return: 2.79

Enquiry: Continue with CCOC(=O)[C@H](CCc1ccccc1)N[C@@H](C)C(=O)N1CCC[C@H]1C(=O)O
Return: 6.06

Measured values drawn from patent US6727066B2 for this set.
